# Test system: corn (Zea mays)
# experimentSummary: Test G Post-Emergence Protocol
# Type: in vivo
# assayConditions: Zea mays, post-emergence, 312 h, 15.625 g ai/ha, evaluated after 13 days (100=total damage to plant; 0=no damage to plant), read-out: Corn damage rating
measuredAttribute: plant injury at 15.625 g/ha (%)
The figure you give is taken to be in %; do not add the unit.

The examples below pair each entry with its known result.
molecule	plant injury at 15.625 g/ha, %
Cc1cc(C(F)(F)F)ccc1[C@@H]1CN(C)C(=O)[C@H]1C(=O)Nc1ccccc1F (racemic)	20
Cc1nnc(NC(=O)[C@@H]2C(=O)N(C)C[C@H]2c2ccc(C(F)(F)F)cc2)s1 (racemic)	0
C=Cc1cccc([C@@H]2CN(C)C(=O)[C@H]2C(=O)Nc2cccc(F)c2F)c1 (racemic)	20

IN: Name the reported plant injury at 15.625 g/ha value associated with the molecule CN1C[C@@H](c2ccc(C(F)(F)F)cc2)[C@H](C(=O)Nc2cc[nH]n2)C1=O (racemic)
OUT: 0

IN: Name the reported plant injury at 15.625 g/ha value associated with the molecule COc1cc(NC(=O)[C@@H]2C(=O)N(C)C[C@H]2c2ccc(C(F)(F)F)cc2)ccn1 (racemic)
OUT: 0

IN: Name the reported plant injury at 15.625 g/ha value associated with the molecule CN1C[C@H](c2ccc(C(F)(F)F)cc2)[C@@H](C(=O)Nc2cccc3ccsc23)C1=O (racemic)
OUT: 0

IN: Name the reported plant injury at 15.625 g/ha value associated with the molecule CN1C[C@@H](c2ccc(C(F)(F)F)cc2)[C@H](C(=O)Nc2ccno2)C1=O (racemic)
OUT: 0
